subject-of-test: recombinant human PAD4 (human, UniProt Q9UM07 1-663)
Sequence (Q9UM07 whole entry): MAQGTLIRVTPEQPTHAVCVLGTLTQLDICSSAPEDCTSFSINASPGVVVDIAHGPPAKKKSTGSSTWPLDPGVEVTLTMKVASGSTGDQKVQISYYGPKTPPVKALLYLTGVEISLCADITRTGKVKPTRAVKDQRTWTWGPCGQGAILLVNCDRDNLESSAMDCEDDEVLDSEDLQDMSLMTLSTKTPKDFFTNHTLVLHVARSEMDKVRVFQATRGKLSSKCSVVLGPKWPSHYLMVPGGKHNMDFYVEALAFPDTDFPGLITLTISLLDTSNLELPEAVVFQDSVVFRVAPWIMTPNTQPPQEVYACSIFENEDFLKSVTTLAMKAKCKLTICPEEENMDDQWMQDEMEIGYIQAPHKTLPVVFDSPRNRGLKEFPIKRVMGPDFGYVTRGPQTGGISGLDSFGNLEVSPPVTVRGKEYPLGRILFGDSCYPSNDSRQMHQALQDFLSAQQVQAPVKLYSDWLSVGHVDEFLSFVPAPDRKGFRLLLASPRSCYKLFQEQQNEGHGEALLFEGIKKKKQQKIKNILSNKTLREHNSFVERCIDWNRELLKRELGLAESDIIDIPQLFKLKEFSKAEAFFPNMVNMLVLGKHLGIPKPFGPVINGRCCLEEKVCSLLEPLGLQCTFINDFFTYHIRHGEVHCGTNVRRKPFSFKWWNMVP
test-summary: cell-based or functional assay
Square brackets hold non-standard residues; d marks the D form. Orn(fluoroacetimidoyl) = N=C(CF)NCCC[C@H](N)C(=O)O
measurement-kind: conversion of 0708-30 by PAD4, 100 µM inhibitor (%)

binder	measurement-units	recorded-result
Ac-DSKKHD[Orn(fluoroacetimidoyl)]DFLYSD-NH2 (SMILES CC(=O)N[C@@H](CC(=O)O)C(=O)N[C@@H](CO)C(=O)N[C@@H](CCCCN)C(=O)N[C@@H](CCCCN)C(=O)N[C@@H](Cc1c[nH]cn1)C(=O)N[C@@H](CC(=O)O)C(=O)N[C@@H](CCCNC(=N)CF)C(=O)N[C@@H](CC(=O)O)C(=O)N[C@@H](Cc1ccccc1)C(=O)N[C@@H](CC(C)C)C(=O)N[C@@H](Cc1ccc(O)cc1)C(=O)N[C@@H](CO)C(=O)N[C@@H](CC(=O)O)C(N)=O) [0741-06FA]	%	27
